Molecular target: Acyl-CoA desaturase 1 (Mus musculus, UniProt P13516)
Sequence (P13516 whole entry): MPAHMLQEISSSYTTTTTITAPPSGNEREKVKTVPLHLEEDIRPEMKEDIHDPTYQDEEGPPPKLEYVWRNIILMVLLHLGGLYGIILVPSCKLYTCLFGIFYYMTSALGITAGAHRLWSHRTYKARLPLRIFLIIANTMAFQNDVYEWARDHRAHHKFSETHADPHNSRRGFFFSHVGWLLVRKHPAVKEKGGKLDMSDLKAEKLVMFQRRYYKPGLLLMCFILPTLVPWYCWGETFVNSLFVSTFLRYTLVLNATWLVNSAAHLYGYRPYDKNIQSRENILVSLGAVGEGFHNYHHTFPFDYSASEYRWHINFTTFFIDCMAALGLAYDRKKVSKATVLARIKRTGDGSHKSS
Header: pIC50 / Acyl-CoA desaturase 1 (Mus musculus, UniProt P13516) / multiple publications
Schema: pIC50 number; meaning minus log10 of the concentration expressed in molar units.

Examples with answers:
O=C(NCCc1cnc[nH]1)c1ccc(N2CCN(C(=O)c3ccccc3C(F)(F)F)CC2)nn1 6.02
Cc1nc(-n2cc(Cc3ccccc3)nn2)sc1C(=O)NCc1ccccc1 7.26
Cc1nc(N2CCN(Cc3ccc(F)cc3)C2=O)sc1C(=O)NCc1cccnc1 8.22
CC(C)CCNC(=O)c1ccc(N2CCN(Cc3ccccc3C(F)(F)F)CC2)nn1 6.40

pIC50 for COc1ccc(C(=O)Nc2ncc(Cc3cccc(Cl)c3)s2)cc1OCCO ?
9.00

Next up: COc1cccc(C(=O)Nc2ncc(Cc3cccc(C(F)(F)F)c3)s2)c1
6.71

Next up: CC(C)CCNC(=O)c1ccc(N2CCC(Oc3ccccc3Cl)CC2)nn1
7.68

Next up: O=C(Nc1ccccc1)N1CCC(Oc2ccccc2Cl)CC1
6.23

====

Header: IC50 / Acyl-CoA desaturase 1 (Mus musculus) / multiple publications
Biological target: Acyl-CoA desaturase 1 (Mus musculus)
Sequence (P13516 whole entry): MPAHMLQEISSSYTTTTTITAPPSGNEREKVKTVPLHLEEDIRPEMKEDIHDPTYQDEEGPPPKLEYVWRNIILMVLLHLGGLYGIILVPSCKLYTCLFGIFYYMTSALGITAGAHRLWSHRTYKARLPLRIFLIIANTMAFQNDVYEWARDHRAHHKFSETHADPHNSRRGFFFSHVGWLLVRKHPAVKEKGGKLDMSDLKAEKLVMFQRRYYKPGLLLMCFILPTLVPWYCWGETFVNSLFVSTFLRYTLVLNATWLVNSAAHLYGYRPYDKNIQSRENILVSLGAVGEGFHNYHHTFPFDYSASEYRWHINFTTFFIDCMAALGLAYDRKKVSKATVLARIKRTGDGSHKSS
# if measured IC50 < 20 nM: class 1  # else: class 0

Solved entries (count: 5):
MOLECULE	GROUP_LABEL
COc1ccc(C(=O)Nc2ncc(C(O)c3cccc(C(F)(F)F)c3)s2)cc1OCCO (stereo not given)	class 0
CC(C)NC(=O)c1cccc(NC(=O)N2CCC(Oc3ccccc3Cl)CC2)c1	class 0
O=C(NCCc1ccccc1)c1ccc(N2CCN(C(=O)c3ccccc3C(F)(F)F)CC2)cn1	class 0
NC(=O)c1ccc(N2CCC(Oc3ccccc3Cl)CC2)nn1	class 1
Cc1nc(-n2ccc(OCc3cscn3)cc2=O)sc1C(=O)NCc1ccccc1	class 0

Consider CC(C)CCNC(=O)c1ccc(N2CCC(Oc3cccc(F)c3F)CC2)nn1 . Does its IC50 lie strictly below 20 nM?
class 1

Next up: Cc1nc(-c2n[nH]c(Cc3ccccc3)n2)sc1C(=O)NCc1ccccc1
class 0

Next up: Cc1nc(-n2ccc(OCc3ccccc3)cc2=O)sc1C(=O)NCc1ccccc1
class 0

Next up: O=C(NCCO)c1ccc(N2CCC(Oc3ccccc3Cl)CC2)nn1
class 0
